Give Kd for every item shown.
Target: T1, CEACAM1 (Sino Biological) (human, UniProt P13688 35-428, limits assumed)
T1 construct: may be the same as CEACAM1-HIS; also called hCEACAM1; biotinylated soluble CEACAM1
T1 sequence: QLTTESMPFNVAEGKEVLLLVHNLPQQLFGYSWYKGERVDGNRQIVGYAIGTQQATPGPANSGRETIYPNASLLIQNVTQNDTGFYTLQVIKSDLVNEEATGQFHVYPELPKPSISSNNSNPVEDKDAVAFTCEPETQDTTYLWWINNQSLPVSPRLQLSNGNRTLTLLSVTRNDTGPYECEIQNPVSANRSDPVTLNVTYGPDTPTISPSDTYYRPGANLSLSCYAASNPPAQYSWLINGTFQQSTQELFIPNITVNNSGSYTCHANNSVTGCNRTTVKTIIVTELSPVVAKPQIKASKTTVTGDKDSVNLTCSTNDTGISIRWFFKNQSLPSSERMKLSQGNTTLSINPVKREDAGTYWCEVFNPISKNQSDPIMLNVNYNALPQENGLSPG
Assay: SPR single-cycle
Just the number please, in nM, no unit attached.

Inquiry: Given the entry He1/L16 (antibody, IgG4, V domains shown, IgG4 S241P, kappa) VH: EVQLLESGGGLVQPGGSLRLSCAASGFSFSDYYLYWVRQAPGKGLEWVATISVGGGQTSYADSVKGRFTISRDNSKNTLYLQMNSLRAEDTAMYYCTRGLYYGPSWFAYWGQGTLVTVSS VL: DIVMTQSPDSLAVSLGERATINCKSSQSLLNSANQKNYLAWYQQKPGQPPKLLIYFASTRESGVPDRFSGSGSGTDFTLTISSLQAEDVAVYYCQSHYPYPFTFGGGTKVEIK , report its measured Kd.
Reply text: 341

Inquiry: Report Kd for He13/L20 (antibody, IgG4, V domains shown, IgG4 S241P, kappa) VH: EVQLLESGGGLVQPGGSLRLSCAASGFSFSDYYLYWVRQAPGKGLEWVATISVGGGQTSYADSVKGRFTISRDNSKNTLYLQMNSLRAEDTAMYYCTRGLYYGPSWLAYWGQGTLVTVSS VL: DIVMTQSPDSLAVSLGERATINCKSSQSLLNSANQKNYLAWYQQKPGQPPKLLIYFASTRESGVPDRFSGSGSGTDFTLTISSLQAEDVAVYYCQSHFPYPLTFGGGTKVEIK please.
Reply text: 109

Values were extracted from patent US20250388666A1.
